Value source: patent US9394284B2

Target: human prostanoid TP receptor (Homo sapiens, UniProt P21731)
Construct: expressed in transfected cells
Sequence (P21731 whole entry): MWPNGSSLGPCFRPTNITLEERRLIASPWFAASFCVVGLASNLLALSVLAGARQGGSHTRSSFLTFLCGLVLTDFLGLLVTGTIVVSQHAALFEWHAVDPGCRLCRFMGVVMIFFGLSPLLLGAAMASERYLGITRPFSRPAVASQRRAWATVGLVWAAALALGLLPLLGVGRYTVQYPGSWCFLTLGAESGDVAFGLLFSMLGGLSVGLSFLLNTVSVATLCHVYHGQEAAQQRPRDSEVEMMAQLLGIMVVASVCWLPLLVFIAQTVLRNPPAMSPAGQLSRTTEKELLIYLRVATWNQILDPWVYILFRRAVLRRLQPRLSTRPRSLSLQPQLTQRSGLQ
Assay: FLIPR Ca2+ signaling antagonist assay, TP receptor stable cell line
Assay type: cell-based
Conditions: HEK-293 EBNA stable cell line; standard agonist U-46619; NA = inactive (no antagonism or Kb 10,000 nM); PAg, Ag not defined
assay.endpoint: Kb (nM)

Worked examples follow.
Would you kindly share the measured Kb for Cc1cc(CCC(=O)O)nn1Cc1cc(Cl)ccc1OCC1(C(F)(F)F)CCC1 [Example 38] ?
8

Kb for CCC(CC)COc1ccc(C#N)cc1Cn1nc(CCC(=O)O)cc1C [Example 60] ?
120

I = Cc1cc(CCC(=O)O)nn1Cc1cc(Cl)ccc1C#CCC(C)C [Example 76]
II = Cc1cc(CCC(=O)O)nn1Cc1cc(Cl)ccc1OCCC(C)C [Example 21]
III = CCCCC(CC)COc1ccc(Br)cc1Cn1nc(CCC(=O)O)cc1C (stereo not drawn) [Example 6]
IV = Cc1cc(CCC(=O)O)nn1Cc1cc(Cl)ccc1OCC(C)(C)C [Example 35]
Rank by Kb (largest to smallest). Ranked list of labels, please, in the requested order.
II, IV, III, I
(II: 30 nM, IV: 20 nM, III: 10 nM, I: 7 nM)

A = CCC(C)(CC)COc1ccc(Br)cc1Cn1nc(CCC(=O)O)cc1C [Example 11]
B = CCC(CC)COc1ccc(C(F)(F)F)cc1Cn1nc(CCC(=O)O)cc1C [Example 46]
// compare measured Kb, left A , right B , return larger Refer to your chosen entry by its label in the reply.
A

* * *

Target: human prostanoid EP1 receptor (Homo sapiens)
Construct: expressed in transfected cells
Sequence (P34995 1-402): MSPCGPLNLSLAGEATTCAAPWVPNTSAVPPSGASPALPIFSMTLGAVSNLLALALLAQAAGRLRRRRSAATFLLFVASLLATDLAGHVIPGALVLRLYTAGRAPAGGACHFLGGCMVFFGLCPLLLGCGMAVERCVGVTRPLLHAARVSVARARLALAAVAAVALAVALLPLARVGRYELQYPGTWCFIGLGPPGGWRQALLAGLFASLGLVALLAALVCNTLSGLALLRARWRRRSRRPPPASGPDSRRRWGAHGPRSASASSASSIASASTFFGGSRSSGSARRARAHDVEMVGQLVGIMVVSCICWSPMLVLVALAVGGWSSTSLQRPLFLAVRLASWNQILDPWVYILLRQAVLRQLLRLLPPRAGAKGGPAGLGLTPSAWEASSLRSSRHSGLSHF
Experiment: FLIPR Ca2+ signaling antagonist assay, EP1 receptor stable cell line
Assay type: cell-based
Conditions: HEK-293 EBNA stable cell line; standard agonist PGE2; NA = inactive (no antagonism or Kb 10,000 nM); PAg, Ag not defined
assay.endpoint: Kb (nM)

Please review the following examples before continuing.
May I ask what Kb has been recorded for CCC(CC)COc1ccc(F)cc1Cn1nc(CCC(=O)O)cc1C [Example 47] ?
370

Looking for the measured Kb of Cc1cc(CC(C)(C)C(=O)O)nn1Cc1cc(Br)ccc1OCC1CCCC1 [Example 71] , can you help?
50

A = Cc1cc(CCC(=O)O)nn1Cc1cc(Cl)ccc1OCCC(C)C [Example 21]
B = Cc1cc(CC(C)(C)C(=O)O)nn1Cc1cc(Cl)ccc1OCC1CCCC1 [Example 72]
C = Cc1cc(CCC(=O)NS(=O)(=O)C(F)(F)F)nn1Cc1cc(Br)ccc1OCC1CCCC1 [Example 18]
Please put the entries in order of rising Kb. Reply with the item labels sorted in the order that was asked for.
C, B, A
(C: 14 nM, B: 70 nM, A: 350 nM)
